System: primary cortical neurons
method-notes: Neurite outgrowth assay of primary cortical neurons (image-based HCS) against paclitaxel-induced neurotoxicity
Format: cell-based, mouse
run-conditions: Mus musculus, Primary cortical neuron; test compound 10 nM + paclitaxel 1 μM; mean ± SE; read-out: C: Neurite outgrowth (% of control) of test compound (10 nM) + paclitaxel (1 μM)
Response field label: string, one of Condition met (activity at 0.01 µM strictly below 70%) or Condition not met.

Please review the entries below; each comes with its answer.
CCN(CC)c1cc(N/N=C/c2cccc(O)c2)nc(N(CC)CC)n1 :: Condition met
CN(C)c1cc(NNC(=O)c2ccc(C(C)(C)C)cc2)nc(N(C)C)n1 :: Condition met
CN(C)c1cc(NNC(=O)c2ccc(Cl)cc2)nc(N(C)C)n1 :: Condition met
CCN(CC)c1cc(N/N=C/c2ccc(O)c(OC)c2)nc(N(CC)CC)n1 :: Condition met

is_below(activity at 0.01 µM, 70%) for CCN(CC)c1cc(NNC(=O)c2ccc(C(C)(C)C)cc2)nc(N(CC)CC)n1 ? Condition met

is_below(activity at 0.01 µM, 70%) for CCN(CC)c1cc(N/N=C/c2ccccc2OC)nc(N(CC)CC)n1 ? Condition met

is_below(activity at 0.01 µM, 70%) for CC(C)(C)c1ccc(C(=O)NNc2cc(N3CCOCC3)nc(N3CCOCC3)n2)cc1 ? Condition not met

====

Task for the reader: assign each of the following compounds its reported activity at 1 µM.
System: primary cortical neurons
method-notes: Neurite outgrowth assay of primary cortical neurons (image-based HCS) against paclitaxel-induced neurotoxicity
Type: cell-based, mouse
run-conditions: Mus musculus, Primary cortical neuron, read-out: D: Neurite outgrowth (% of control) of test compound (1000 nM) + paclitaxel (1 μM)
Numbers only, in %.

CN(C)c1cc(N/N=C/c2ccccc2)nc(N(C)C)n1 :: 67
O=C(CCc1ccccc1)NNc1cc(N2CCOCC2)nc(N2CCOCC2)n1 :: 65
O=C(CCc1ccccc1)NNc1cc(N2CCCC2)nc(N2CCCC2)n1 :: 74

Each compound below has a recorded value; state its activity at 1 µM.
1. CCCN(CCC)c1cc(NNC(=O)CCc2ccccc2)nc(N(CCC)CCC)n1
2. Oc1ccc(Cl)cc1/C=N/Nc1cc(N2CCCC2)nc(N2CCCC2)n1
3. COc1cc(/C=N/Nc2cc(N(C)C)nc(N(C)C)n2)ccc1O

1: 48; 2: 61; 3: 74

====

Tested on: primary cortical neurons
method-notes: Neurite outgrowth assay of primary cortical neurons (image-based HCS) against paclitaxel-induced neurotoxicity
Format: cell-based, mouse
run-conditions: Mus musculus, Primary cortical neuron; test compound 10 nM + paclitaxel 1 μM; mean ± SE; read-out: C: Neurite outgrowth (% of control) of test compound (10 nM) + paclitaxel (1 μM)
property-label: activity at 0.01 µM (%)
Answers are plain numbers, in %.

Worked examples follow.
Oc1ccc(Br)cc1/C=N/Nc1cc(N2CCOCC2)nc(N2CCOCC2)n1 :: 76
CCCN(CCC)c1cc(N/N=C/c2cc(Br)ccc2O)nc(N(CCC)CCC)n1 :: 27
Oc1ccccc1/C=N/Nc1cc(N2CCCCC2)nc(N2CCCCC2)n1 :: 57
Clc1ccc(/C=N/Nc2cc(N3CCOCC3)nc(N3CCOCC3)n2)cc1 :: 91
COc1ccc(/C=N/Nc2cc(N3CCCC3)nc(N3CCCC3)n2)cc1 :: 66
COc1cc(/C=N/Nc2cc(N3CCCC3)nc(N3CCCC3)n2)ccc1O :: 86
CN(C)c1cc(NNC(=O)c2ccccc2O)nc(N(C)C)n1 :: 55
CCOc1ccc(Nc2nc(/N=C/c3c(OC)c(C(=O)Nc4ccccc4C)cc4ccccc34)c([N+](=O)[O-])c(NCc3ccccc3)n2)cc1 :: 90
Cc1ccccc1C(=O)NNc1cc(N2CCOCC2)nc(N2CCOCC2)n1 :: 67
CCN(CC)c1ccc(/C=N/Nc2cc(N3CCOCC3)nc(N3CCOCC3)n2)cc1 :: 68

Each compound below has a recorded value; state its activity at 0.01 µM.
1. CN(C)c1ccc(/C=N/Nc2cc(N3CCCC3)nc(N3CCCC3)n2)cc1
2. CCCN(CCC)c1cc(N/N=C/c2ccccc2OC)nc(N(CCC)CCC)n1
3. Oc1ccccc1/C=N/Nc1cc(N2CCOCC2)nc(N2CCOCC2)n1
4. COc1ccccc1/C=N/Nc1cc(N2CCCC2)nc(N2CCCC2)n1
5. CC(C)(C)c1ccc(C(=O)NNc2cc(N3CCCC3)nc(N3CCCC3)n2)cc1
6. Clc1ccc(/C=N/Nc2cc(N3CCCCCC3)nc(N3CCCCCC3)n2)cc1
7. O=[N+]([O-])c1ccc(/C=N/Nc2cc(N3CCCC3)nc(N3CCCC3)n2)cc1
8. CN(C)c1cc(N/N=C/c2cc3c(c([N+](=O)[O-])c2)OCO3)nc(N(C)C)n1

[77, 45, 66, 68, 85, 62, 53, 63]

Each compound below has a recorded value; state its activity at 0.01 µM.
1. O=[N+]([O-])c1ccc(/C=N/Nc2cc(N3CCCCC3)nc(N3CCCCC3)n2)cc1
2. CCN(CC)c1ccc(/C=N/Nc2cc(N3CCCCC3)nc(N3CCCCC3)n2)cc1
3. COc1cc(/C=N/Nc2cc(N3CCOCC3)nc(N3CCOCC3)n2)ccc1O

[77, 57, 79]
